- target_under_test: T1, cynomolgus monkey BCMA (cynomolgus monkey, UniProt A0A2K5UD97 1-53)
- T1 construct: Soluble analyte in SPR; construct not described; also called cyBCMA; Cyno BCMA
- assay_info: SPR, IgG immobilised, 37 C
- Protocol: All experiments were performed on a Bio-Rad Proteon XPR36 surface Plasmon resonance biosensor (Bio-Rad, Hercules, Calif.). […] The analysis temperature for the immobilization was 25° C. and the running buffer was HBS-T+(10 mM HEPES, 150 mM NaCl, 0.05% Tween-20, pH 7.4). […] The analysis temperature for the BCMA binding analysis was 37° C. or 25° C. in a running buffer of HBS-T+, supplemented with 1 mg/mL BSA. […] Immediately after the 50 nM BCMA injection, dissociation was monitored for 2 hours. […]
Flag rule - T ½ less than 3 min flags yes (1); the remaining entries get no (0).

Some entries whose results are on file:
* L3.PY/L1.AH/H2.LT (antibody, V domains shown, IgG) VH: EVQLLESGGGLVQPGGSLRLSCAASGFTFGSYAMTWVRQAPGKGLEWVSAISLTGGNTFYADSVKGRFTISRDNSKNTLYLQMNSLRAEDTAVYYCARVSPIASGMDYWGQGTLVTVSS VL: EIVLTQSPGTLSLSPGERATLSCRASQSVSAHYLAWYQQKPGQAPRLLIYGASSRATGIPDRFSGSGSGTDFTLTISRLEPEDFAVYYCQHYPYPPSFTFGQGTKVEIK | no (0)
* L3.PY/H2.YQ (antibody, V domains shown, IgG) VH: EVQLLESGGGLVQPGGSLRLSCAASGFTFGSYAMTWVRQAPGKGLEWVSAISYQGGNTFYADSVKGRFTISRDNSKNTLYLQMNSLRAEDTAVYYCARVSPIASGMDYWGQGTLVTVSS VL: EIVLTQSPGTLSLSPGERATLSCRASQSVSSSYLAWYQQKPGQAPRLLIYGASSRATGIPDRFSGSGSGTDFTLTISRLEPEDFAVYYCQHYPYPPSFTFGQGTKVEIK | yes (1)
* L3.PY/H3.YA (antibody, V domains shown, IgG) VH: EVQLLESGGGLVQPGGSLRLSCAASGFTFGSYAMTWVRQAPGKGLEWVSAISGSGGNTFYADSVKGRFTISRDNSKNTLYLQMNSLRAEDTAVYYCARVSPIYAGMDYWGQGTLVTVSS VL: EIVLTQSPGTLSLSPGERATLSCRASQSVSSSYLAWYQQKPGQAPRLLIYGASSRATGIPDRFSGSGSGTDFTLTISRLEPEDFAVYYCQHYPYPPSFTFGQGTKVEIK | yes (1)
* L3.PY/H2.DY (antibody, V domains shown, IgG) VH: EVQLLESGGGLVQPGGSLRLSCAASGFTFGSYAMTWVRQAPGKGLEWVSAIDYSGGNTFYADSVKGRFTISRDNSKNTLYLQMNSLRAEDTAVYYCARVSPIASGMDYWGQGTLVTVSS VL: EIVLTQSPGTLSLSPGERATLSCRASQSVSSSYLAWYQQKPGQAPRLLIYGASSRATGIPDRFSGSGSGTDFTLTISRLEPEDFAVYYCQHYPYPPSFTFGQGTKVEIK | yes (1)
* L3.PY/L1.PS/H2.QL (antibody, V domains shown, IgG) VH: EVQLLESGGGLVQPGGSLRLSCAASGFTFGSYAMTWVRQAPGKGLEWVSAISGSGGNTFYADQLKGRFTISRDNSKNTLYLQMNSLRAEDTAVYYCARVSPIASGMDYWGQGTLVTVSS VL: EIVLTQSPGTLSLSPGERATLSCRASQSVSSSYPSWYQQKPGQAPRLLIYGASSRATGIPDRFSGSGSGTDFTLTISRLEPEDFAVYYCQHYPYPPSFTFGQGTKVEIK | no (0)
* L3.PY/L1.AH/H2.QL (antibody, V domains shown, IgG) VH: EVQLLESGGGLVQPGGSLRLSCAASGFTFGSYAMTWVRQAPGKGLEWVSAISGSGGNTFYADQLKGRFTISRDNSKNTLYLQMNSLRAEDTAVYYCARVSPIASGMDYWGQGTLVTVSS VL: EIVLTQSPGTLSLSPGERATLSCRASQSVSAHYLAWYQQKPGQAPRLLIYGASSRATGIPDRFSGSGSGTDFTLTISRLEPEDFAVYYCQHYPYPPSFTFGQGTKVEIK | yes (1)

Qu. Consider L3.PY/L1.AH/H2.DY (antibody, V domains shown, IgG) VH: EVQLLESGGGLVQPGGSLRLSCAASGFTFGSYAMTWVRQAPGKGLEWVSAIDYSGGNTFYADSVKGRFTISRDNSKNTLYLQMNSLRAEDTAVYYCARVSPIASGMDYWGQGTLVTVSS VL: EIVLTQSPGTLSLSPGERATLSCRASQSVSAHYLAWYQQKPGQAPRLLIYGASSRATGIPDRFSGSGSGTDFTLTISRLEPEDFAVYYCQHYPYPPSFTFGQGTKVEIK . Does its T ½ lie strictly below 3 min?
Ans. yes (1)

Qu. Consider L3.PY/L1.PS/H2.HA (antibody, V domains shown, IgG) VH: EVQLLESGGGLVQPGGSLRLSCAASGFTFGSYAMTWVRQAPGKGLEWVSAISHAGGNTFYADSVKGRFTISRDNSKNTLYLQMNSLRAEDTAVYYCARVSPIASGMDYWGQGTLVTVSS VL: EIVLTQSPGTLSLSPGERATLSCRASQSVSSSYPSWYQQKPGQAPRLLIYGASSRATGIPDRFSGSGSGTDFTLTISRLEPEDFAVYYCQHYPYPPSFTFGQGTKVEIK . Does its T ½ lie strictly below 3 min?
Ans. no (0)
